target: SHP2 N-SH2 domain T42A; assay: log2 enrichment relative to wild-type ITIM peptide; higher = stronger binding
Classification field: enter true for log2 enrichment values not below -1, false for values below it.

BINDER	CLASS
VFSIDYGELDF [PD-1 ITIM pTyr223 peptide variant V221I]	true
VFSVDYTELDF [PD-1 ITIM pTyr223 peptide variant G224T]	true

Does the reported log2 enrichment for VFSVFYGELDF [PD-1 ITIM pTyr223 peptide variant D222F] fall at or above the -1 mark? true

Does the reported log2 enrichment for VFSVVYGELDF [PD-1 ITIM pTyr223 peptide variant D222V] fall at or above the -1 mark? true

Does the reported log2 enrichment for VFSVDYGENDF [PD-1 ITIM pTyr223 peptide variant L226N] fall at or above the -1 mark? false

Reference for the values: the supplement of paper PMC10369915
